Attribution: ChEMBL document CHEMBL1156282

EXPERIMENTAL SYSTEM: Phosphatidylinositol 4,5-bisphosphate 3-kinase catalytic subunit alpha isoform (Homo sapiens, UniProt P42336)
Sequence (P42336 whole entry, canonical isoform): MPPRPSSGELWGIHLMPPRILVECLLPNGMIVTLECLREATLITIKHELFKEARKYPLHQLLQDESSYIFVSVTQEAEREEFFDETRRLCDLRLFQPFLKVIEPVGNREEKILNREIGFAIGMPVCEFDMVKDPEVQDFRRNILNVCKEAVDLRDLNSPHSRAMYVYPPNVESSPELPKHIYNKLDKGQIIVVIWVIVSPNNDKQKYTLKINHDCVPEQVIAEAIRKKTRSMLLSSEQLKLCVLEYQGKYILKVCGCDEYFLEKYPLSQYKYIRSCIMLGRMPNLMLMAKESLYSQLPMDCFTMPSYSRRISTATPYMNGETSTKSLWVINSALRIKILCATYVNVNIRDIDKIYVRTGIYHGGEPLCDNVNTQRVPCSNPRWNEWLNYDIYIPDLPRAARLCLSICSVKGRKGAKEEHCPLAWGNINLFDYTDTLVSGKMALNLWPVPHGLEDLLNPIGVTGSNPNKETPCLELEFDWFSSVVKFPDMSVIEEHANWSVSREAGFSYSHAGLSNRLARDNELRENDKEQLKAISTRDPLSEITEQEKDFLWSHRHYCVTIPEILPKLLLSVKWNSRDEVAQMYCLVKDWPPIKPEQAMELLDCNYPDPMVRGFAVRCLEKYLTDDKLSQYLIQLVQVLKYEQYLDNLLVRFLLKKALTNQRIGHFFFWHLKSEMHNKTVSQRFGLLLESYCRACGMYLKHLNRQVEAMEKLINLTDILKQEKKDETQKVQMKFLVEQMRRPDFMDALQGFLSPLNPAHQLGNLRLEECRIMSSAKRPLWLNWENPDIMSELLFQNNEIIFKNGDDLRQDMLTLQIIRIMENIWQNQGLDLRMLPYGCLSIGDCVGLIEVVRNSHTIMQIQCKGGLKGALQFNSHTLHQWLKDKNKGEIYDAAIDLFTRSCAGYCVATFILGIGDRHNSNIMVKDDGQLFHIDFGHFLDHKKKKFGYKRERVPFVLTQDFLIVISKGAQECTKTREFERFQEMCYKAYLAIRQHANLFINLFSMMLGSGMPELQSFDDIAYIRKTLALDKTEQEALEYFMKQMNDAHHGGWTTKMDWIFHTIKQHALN
ASSAY REMARKS: Inhibition of PI3Kalpha
Listed below: pIC50 values for each entry.
// returns pIC50 (minus log10 of molar concentration), number only

Here's what some known entries look like.
[[record]]
compound = "Cn1cc(/C=C2\\Oc3ccc(NC(=O)Nc4cccnc4)cc3C2=O)c2c(N3CCC(C(=O)N4CCOCC4)CC3)ccnc21"
observed = 5.58

[[record]]
compound = "Cn1cc(/C=C2\\Oc3ccc(NC(=O)Nc4cccnc4)cc3C2=O)c2c(N3C4CCC3COC4)ccnc21"
observed = 6.89

[[record]]
compound = "Cn1cc(/C=C2\\Oc3ccc(NC(=O)Nc4cccnc4)cc3C2=O)c2c(N3CCC(C(=O)NCc4cccnc4)CC3)ccnc21"
observed = 5.39


Turning now to a further compound:
Give the reported value of pIC50 for this record: Cn1cc(/C=C2\Oc3ccc(NC(=O)Nc4cccnc4)cc3C2=O)c2c(N3CC4CCC3CO4)ccnc21 (stereo unspecified)
6.60
